molecular target: recombinant human ALK5 (TGF-βR1) protein (Homo sapiens); construct: purchased Life Technologies PR9075A; assay: Biochemical ALK5 (TGF-βR1) assay to measure pKi (LANCE Ultra ULight kinase assay); conditions: apparent pKi, converted from pIC50 by Cheng-Prusoff
MEASUREMENT NAME: Ki

| MOLECULE | MEASURED ON | Ki |
| --- | --- | --- |
| Cc1cccc(-c2nccc(Nc3ccnc(Nc4ccc(CN5C[C@@H]6C[C@H]5CN6)cc4)n3)n2)n1 | recombinant human ALK5 (TGF-βR1) protein (Homo sapiens) | 0.0398 to 0.316 nM |
| Cc1cccc(-c2nccc(Nc3ccnc(Nc4nc(C(=O)N5CCNCC5)cs4)n3)n2)n1 | recombinant human ALK5 (TGF-βR1) protein (Homo sapiens) | 0.0398 to 0.316 nM |
| Cc1cccc(-c2nccc(Nc3ccnc(Nc4ccc(CN5CCC(C(=O)O[C@@H]6CCNC6)CC5)cc4)n3)n2)n1 | recombinant human ALK5 (TGF-βR1) protein (Homo sapiens) | 0.0398 to 0.316 nM |

# Cc1cccc(-c2nccc(Nc3ccnc(Nc4cc(C(=O)O[C@@H]5CCNC5)ccn4)n3)n2)n1 with recombinant human ALK5 (TGF-βR1) protein (Homo sapiens): Ki is 3.98 to 31.6 nM

Known value: recombinant human ALK5 (TGF-βR1) protein (Homo sapiens) Ki of the molecule CC[C@H](C)OC(=O)CC1CNCCN1c1ccc(Nc2nccc(Nc3ccnc(-c4cccc(C)n4)n3)n2)cc1 (some centres unmarked) equals 0.0398 to 0.316 nM

----------
In this section, each of the compounds is paired with its reported Ki.
target: recombinant human ALK5 (TGF-βR1) protein (Homo sapiens, UniProt P36897); assay: Biochemical ALK5 (TGF-βR1) assay to measure pKi (LANCE Ultra ULight kinase assay); details: apparent pKi, converted from pIC50 by Cheng-Prusoff
Sequence (P36897 34-503): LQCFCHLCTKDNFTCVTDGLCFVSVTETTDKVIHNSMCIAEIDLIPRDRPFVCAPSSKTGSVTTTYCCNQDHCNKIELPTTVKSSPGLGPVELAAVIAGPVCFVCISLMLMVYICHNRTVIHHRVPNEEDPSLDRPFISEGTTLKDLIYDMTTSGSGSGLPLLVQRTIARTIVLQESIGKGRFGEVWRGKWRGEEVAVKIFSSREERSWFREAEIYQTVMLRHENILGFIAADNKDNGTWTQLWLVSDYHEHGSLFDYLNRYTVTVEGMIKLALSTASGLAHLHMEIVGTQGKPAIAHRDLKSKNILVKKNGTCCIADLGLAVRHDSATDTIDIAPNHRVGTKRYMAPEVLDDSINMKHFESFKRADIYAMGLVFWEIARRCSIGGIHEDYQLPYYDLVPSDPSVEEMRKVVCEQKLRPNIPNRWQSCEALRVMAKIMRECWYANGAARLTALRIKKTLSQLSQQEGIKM

Use the examples below as a reference point.
| COMPOUND | Ki |
| --- | --- |
| COC(=O)c1ccc(Nc2nccc(Nc3ccnc(-c4cccc(C)n4)n3)n2)cc1 | 0.398 to 3.16 nM |
| Cc1ccc(Nc2nccc(Nc3ccnc(-c4cccc(C)n4)n3)n2)cc1 | 0.398 to 3.16 nM |
| Cc1cccc(-c2nccc(Nc3ccnc(Nc4ccc(-c5cn(Cc6ccccc6)nn5)cc4)n3)n2)n1 | 3.98 to 31.6 nM |
| Cc1cccc(-c2nc(Nc3ccnc(Nc4csc(C(=O)O)c4)n3)c3cccn3n2)n1 | 0.398 to 3.16 nM |
| Cc1cccc(-c2nccc(Nc3ccnc(Nc4ccc(N5CCN(C(=O)CSC6CCOC6=O)CC5)cc4)n3)n2)n1 (stereo not drawn) | 0.0398 to 0.316 nM |

Please look at the following compound next.
The compound Cc1cccc(-c2nccc(Nc3ccnc(Nc4ccc(N5CCC(C(=O)OC6CCN(C)C6)CC5)cc4)n3)n2)n1 (stereo not drawn) on recombinant human ALK5 (TGF-βR1) protein (Homo sapiens, UniProt P36897): Ki was 0.0398 to 0.316 nM

----------
test system: TGF-β-stimulated SMAD3 phosphorylation in BEAS-2B cells; assay: Cellular ALK5 potency assay, inhibition of TGF-β stimulated pSMAD3 formation in BEAS-2B cells; assay type: cell-based; conditions: Homo sapiens, pSMAD3, TGF-β 10 ng/mL, read-out: BEAS2B pIC50 (converted)
MEASUREMENT NAME: IC50

Guide cases for IC50, answers given:
| MOLECULE | MEASUREMENT NAME | OBSERVED |
| --- | --- | --- |
| Cc1cccc(-c2nccc(Nc3ccnc(Nc4ccc(CN5CCNC[C@@H]5CO)cc4)n3)n2)n1 | IC50 | 25.1 to 158 nM |
| Cc1cccc(-c2nccc(Nc3ccnc(Nc4ccc(CN5CCCC(C(=O)OC6CCN(C)C6)C5)cc4)n3)n2)n1 (stereo not drawn) | IC50 | ≤ 20 nM |
| Cc1cccc(-c2ncc(C(=O)O)c(Nc3ccnc(Nc4ccc(N)cc4)n3)n2)n1 | IC50 | 1580 to 10000 nM |
| Cc1cccc(-c2nccc(Nc3ccnc(Nc4ccc(C(=O)OCC5CNC5)cn4)n3)n2)n1 | IC50 | 200 to 1260 nM |
| Cc1cccc(-c2nccc(Nc3ccnc(Nc4cccc(NC(=O)C5CCN(CCN(C)C)CC5)c4)n3)n2)n1 | IC50 | 25.1 to 158 nM |

Could you now consider this next molecule?
Documented IC50 of Cc1cccc(-c2nccc(Nc3ccnc(Nc4cccc(C(=O)OC5CCNCC5)c4)n3)n2)n1 : 25.1 to 158 nM

----------
Listing: IC50 of selected molecules
test system: TGF-β-stimulated SMAD3 phosphorylation in BEAS-2B cells; test: Cellular ALK5 potency assay, inhibition of TGF-β stimulated pSMAD3 formation in BEAS-2B cells; assay type: cell-based; settings: Homo sapiens, pSMAD3, TGF-β 10 ng/mL, read-out: BEAS2B pIC50 (converted)

Check out these entries, answers already filled in.
| MOLECULE | MEASUREMENT NAME | OBSERVED |
| --- | --- | --- |
| Cc1cccc(-c2nccc(Nc3ccnc(Nc4ccc(NC(=O)C5CCN(C6CCNC6)CC5)cc4)n3)n2)n1 (centres unmarked) [Compound 465] | IC50 | ≤ 20 nM |
| CCN1CCN(S(=O)(=O)c2ccc(Nc3nccc(Nc4ccnc(-c5cccc(C)n5)n4)n3)cc2)CC1 [Compound 38] | IC50 | 25.1 to 158 nM |
| Cc1cccc(-c2nccc(Nc3ccnc(Nc4ccc(N5CCOCC5)c(F)c4)n3)n2)n1 [Compound 300] | IC50 | 25.1 to 158 nM |
| Cc1cccc(-c2nc(Nc3ccnc(Nc4cc(C(=O)O)cs4)n3)c3cccn3n2)n1 [Compound 1025] | IC50 | 25.1 to 158 nM |
| Cc1cccc(-c2nccc(Nc3ccnc(Nc4ccc(NC(=O)N5C[C@@H](C)N[C@@H](C)C5)cc4)n3)n2)n1 [Compound 435] | IC50 | 25.1 to 158 nM |

Lab note: measured IC50 of Cc1cccc(-c2nc(Nc3ccnc(Nc4ccc(N5CCNCC5)cc4)n3)cc(-c3c[nH]nn3)n2)n1 [Compound 1012] was 1580 to 10000 nM

Value of measured IC50 for the entry Cc1cccc(-c2nccc(Nc3ccnc(Nc4ccc(N5CCN[C@@H](CO)C5)cc4)n3)n2)n1 [Compound 403] : 25.1 to 158 nM

----------
Target: recombinant human ALK5 (TGF-βR1) protein (Homo sapiens, UniProt P36897)
Test: Biochemical ALK5 (TGF-βR1) assay to measure pKi (LANCE Ultra ULight kinase assay)
Conditions: apparent pKi, converted from pIC50 by Cheng-Prusoff
Description: The assays were performed in a 384-well plate (24 columns×16 wells/rows). An Echo®550 Liquid Handler (Labcyte) was used to prepare various intermediate concentrations of compounds of the present disclosure in 100% DMSO. […] For dose-response analyses, percent inhibition versus compound concentrations were plotted, and pIC50 values were determined from a 4-parameter robust fit model with GraphPad Prism V5 Software (GraphPad Software, Inc., La Jolla, CA). […]
pKi: −log10 of the molar value.
MEASUREMENT NAME: pKi

// solved cases for pKi follow
| STRUCTURE NOTATION | pKi |
| --- | --- |
| Cc1cccc(-c2nccc(Nc3ccnc(Nc4ccc(N5CCN(C6CC6)CC5)cc4)n3)n2)n1 | 9.50 to 10.40 |
| Cc1cccc(-c2nccc(Nc3ccnc(Nc4ccc(C5CCNCC5)cc4)n3)n2)n1 | 9.50 to 10.40 |
| Cc1cccc(-c2nccc(Nc3ccnc(Nc4ccc(C(=O)OC[C@@H]5CCNC5)nc4)n3)n2)n1 | 9.50 to 10.40 |
| Cc1cccc(-c2nccc(Nc3ccnc(Nc4ccc(CN5CCOCC5)c(F)c4)n3)n2)n1 | 9.50 to 10.40 |
| Cc1cccc(-c2nccc(Nc3ccnc(Nc4ccc(CN5C[C@H]6CC[C@@H](C5)N6)cc4)n3)n2)n1 | 9.50 to 10.40 |
| Cc1cccc(-c2nccc(Nc3ccnc(Nc4ccc(-c5cnn(C(C)C)c5)cc4)n3)n2)n1 | 8.50 to 9.40 |
| Cc1cccc(-c2nccc(Nc3ccnc(Nc4ccnc(C(=O)OCC5CNC5)c4)n3)n2)n1 | 8.50 to 9.40 |
| Cc1cccc(-c2nccc(Nc3ccnc(Nc4ccc(CN5CCC(C(=O)O[C@@H]6CCN(C)C6)CC5)cc4)n3)n2)n1 | 9.50 to 10.40 |

Consider now this further molecule.
Noted for Cc1cccc(-c2nccc(Nc3ccnc(Nc4nc(CN5CCC[C@@H](C(=O)O)C5)cs4)n3)n2)n1 : its pKi reads 8.50 to 9.40

----------
molecular target: recombinant human ALK5 (TGF-βR1) protein (Homo sapiens); experiment: Biochemical ALK5 (TGF-βR1) assay to measure pKi (LANCE Ultra ULight kinase assay); conditions: apparent pKi, converted from pIC50 by Cheng-Prusoff
pKi: −log10 of the molar value.
We begin with a simple list: items and their reported pKi.

Data point: COC(=O)CC1CNCCN1c1ccc(Nc2nccc(Nc3ccnc(-c4cccc(C)n4)n3)n2)cc1 (stereo not drawn) ; pKi = 9.50 to 10.40

# pKi of Cc1cccc(-c2nccc(Nc3ccnc(Nc4ccc(CN5CCCC(C(=O)N6CCNCC6)C5)cc4)n3)n2)n1 (stereo not drawn) = 9.50 to 10.40

The value of pKi measured for the compound Cc1cccc(-c2nccc(Nc3ccnc(Nc4ccc(NS(=O)(=O)C5CCNCC5)cc4)n3)n2)n1 turned out to be 9.50 to 10.40
